# System: K98450-129-R-PDC complex spheroid growth, percent test/control
# experiment_description: Anticancer human tumor K98450-129-R-PDC patient-derived colon adenocarcinoma cell line growth inhibition [RAS]
# run_parameters: second compound 0.00949 µM; first compound 0.1 µM; hits give low values
result_type: viability, T/C (%)
Answer format: numeric, % implied, no suffix.

Worked cases, viability, T/C given:
Input line: Give the reported viability, T/C for this compound. Cc1nc(N2CCC3(CC2)COC(C)C3N)c(CO)nc1Sc1ccnc(N)c1Cl (centres undefined) + CCn1c(-c2cccnc2C(C)OC)c2c3cc(ccc31)N1CCOC(CC(NC(=O)C(C(C)C)N(C)C(=O)C3(F)CCN(C(=O)C#CC(C)(C)N(C)C)CC3)C(=O)N3CCCC(N3)C(=O)OCC(C)(C)C2)C1
Output line: 21.6

Input line: Give the reported viability, T/C for this compound. CC(C)n1nc(-c2ccc3oc(N)nc3c2)c2c(N)ncnc21 + CCn1c(-c2cccnc2C(C)OC)c2c3cc(ccc31)N1CCOC(CC(NC(=O)C(C(C)C)N(C)C(=O)C3(F)CCN(C(=O)C#CC(C)(C)N(C)C)CC3)C(=O)N3CCCC(N3)C(=O)OCC(C)(C)C2)C1
Output line: 28.9

Continuing:
Input line: Give the reported viability, T/C for this compound. CC(Nc1ccc2c(c1)OCCn1cc(N3C(=O)OCC3C(F)F)nc1-2)C(N)=O (centres undefined) + CCn1c(-c2cccnc2C(C)OC)c2c3cc(ccc31)N1CCOC(CC(NC(=O)C(C(C)C)N(C)C(=O)C3(F)CCN(C(=O)C#CC(C)(C)N(C)C)CC3)C(=O)N3CCCC(N3)C(=O)OCC(C)(C)C2)C1
Output line: 34.3

Input line: Give the reported viability, T/C for this compound. CC1(O)CCCC1n1c(=O)c(C(F)F)cc2cnc(NC3CCN(S(C)(=O)=O)CC3)nc21 (centres undefined) + CCn1c(-c2cc(N3CCN(C)CC3)cnc2C(C)OC)c2c3cc(ccc31)-c1csc(n1)CC(NC(=O)C1CC1C)C(=O)N1CCCC(N1)C(=O)OCC(C)(C)C2
Output line: 69.8

====

Let's look at some compounds and their measured viability, T/C.
# Tested on: K98450-129-R-PDC complex spheroid growth, percent test/control
# experiment_description: Anticancer human tumor K98450-129-R-PDC cell line growth inhibition [RAS];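 further: luminescence used as a proxy for viable cell amount; spheroids exposed to agents for seven days before the viability readout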
# run_parameters: compound 0.316 µM; hits give low values

Input line: Give the reported viability, T/C for this compound. C#Cc1c(F)ccc2cc(O)cc(-c3ncc4c(N5CC6CCC(C5)N6)nc(OCC56CCCN5CC(F)C6)nc4c3F)c12 (stereo not drawn)
Output line: 105% [middle of 8 runs]

Input line: Give the reported viability, T/C for this compound. CCC(CC)c1cc(NC2CCC(N)C2)n2nccc2n1 (stereo not drawn)
Output line: 99.2% [middle of 4 runs]

For the next question, use this compound.
Input line: Give the reported viability, T/C for this compound. CC1(O)CCCC1n1c(=O)c(C(F)F)cc2cnc(NC3CCN(S(C)(=O)=O)CC3)nc21 (stereo not drawn)
Output line: 91.1% [middle of 4 runs]

====

# System: K98450-129-R-PDC complex spheroid growth, percent test/control
# experiment_description: Anticancer human tumor K98450-129-R-PDC cell line growth inhibition [RAS]; active = viability on the fitted dose curve at most 10% of control; inactive = the rest;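 further: luminescence used as a proxy for viable cell amount; spheroids exposed to agents for seven days before the viability readout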
# run_parameters: second compound 0.0316 µM; first compound 10 µM
# Text: RAS pathway inhibitors in Combinations in Complex Spheroids A high-throughput screen of multi-cell type tumor spheroids was designed to identify active combinations of RAS pathway inhibitors and targeted small molecules. Complex spheroids include a stromal component modeled by human endothelial cells (HUVEC) and fibroblasts modeled by human mesenchymal stem cells (MSCs). […] Compounds. […] If the clinical Cmax for an agent had not been determined, the highest concentration tested was 10 microM. […]
Lab note: assign the record to one of yes (1) = active, no (0) = inactive

Here are 3 compounds together with their reported answers.
Input line: What did this assay record as the result for Cc1nc(N2CCC3(CC2)COC(C)C3N)c(CO)nc1Sc1ccnc(N)c1Cl (stereo unspecified) + C#Cc1c(F)ccc2cc(O)cc(-c3ncc4c(N5CC6CCC(C5)N6)nc(OCC56CCCN5CC(F)C6)nc4c3F)c12 ?
Output line: no (0)

Input line: What did this assay record as the result for CC1(O)CCCC1n1c(=O)c(C(F)F)cc2cnc(NC3CCN(S(C)(=O)=O)CC3)nc21 (stereo unspecified) + C#Cc1c(F)ccc2cc(O)cc(-c3ncc4c(N5CC6CCC(C5)N6)nc(OCC56CCCN5CC(F)C6)nc4c3F)c12 ?
Output line: no (0)

Input line: What did this assay record as the result for CC(=O)OC12COC1CC(O)C1(C)C(=O)C(O)C3=C(C)C(OC(=O)C(O)C(NC(=O)OC(C)(C)C)c4ccccc4)CC(O)(C(OC(=O)c4ccccc4)C21)C3(C)C (stereo unspecified) + C#Cc1c(F)ccc2cc(O)cc(-c3ncc4c(N5CC6CCC(C5)N6)nc(OCC56CCCN5CC(F)C6)nc4c3F)c12 ?
Output line: no (0)

Continuing:
Input line: What did this assay record as the result for CC1(O)CCCC1n1c(=O)c(C(F)F)cc2cnc(NC3CCN(S(C)(=O)=O)CC3)nc21 (stereo unspecified) + C=CC(=O)N1CCN(c2nc(OCC3CCCN3C)nc3c(F)c(-c4nc(N)cc(C)c4C(F)(F)F)c(Cl)cc23)C(C)C1 ?
Output line: no (0)

Input line: What did this assay record as the result for CCC(CC)c1cc(NC2CCC(N)C2)n2nccc2n1 (stereo unspecified) + C#Cc1c(F)ccc2cc(O)cc(-c3ncc4c(N5CC6CCC(C5)N6)nc(OCC56CCCN5CC(F)C6)nc4c3F)c12 ?
Output line: no (0)
